# TEST_SUMMARY: qHTS assay for identifying genotoxic compounds that show differential cytotoxicity against isogenic chicken DT40 cell lines with known DNA damage response pathways - Rad54/Ku70 mutant cell line (AID 743015); note: nearly all actives have a fitted effect of over 60% in size
# TEST_CONTEXT: DT40 Rad54/Ku70 mutant viability, CellTiter-Glo, 40 h; series mostly up to 66.8 µM
Inconclusive results are not listed. The source made the active and inactive calls. Calls come from the whole dose curve; as a rule, active = well fitted cell-killing curve with a large enough effect in the repeat runs; inconclusive = weak or mixed curves; inactive = no such curve, though single readings can be large or run the other way.
Hi! Could you answer with just one of these? label 1 (active), label 0 (inactive)

These solved cases illustrate the format of a correct answer.
{"columns": ["MOLECULE", "CLASSIFICATION"],
 "data": [
  ["CCN(CC)CCNC(=O)c1ccc(N)cc1", "label 0"],
  ["CCCCC(CC)COC(=O)c1ccc(C(=O)OCC(CC)CCCC)cc1 (stereo not given)", "label 0"],
  ["CCc1cccc(O)c1", "label 0"]
]}

Inquiry: Outcome logged for CCCCCC(C)=O in this assay:
Reply text: label 0

Inquiry: // return assay outcome for CCCCCNCCCCC
Reply text: label 0

Inquiry: Please share the test call associated with CCCCCCCC(=O)O .
Reply text: label 0

Inquiry: For CO[Si](CCCNCCN)(OC)OC , what call appears in the results of this test?
Reply text: label 0

Inquiry: Recorded test call requested for CC(=O)OCc1ccc2c(c1)OCO2
Reply text: label 0

Inquiry: What call does the record list for CC(=O)c1nccs1 ?
Reply text: label 0

Inquiry: Hi, sorry to bother you, what did the test record for Cc1ccccc1C=O ?
Reply text: label 0

Inquiry: I would be grateful if you could indicate the recorded call for COc1c(Cl)ccc(Cl)c1C(=O)O .
Reply text: label 0

Inquiry: Please state the recorded outcome for this molecule: C=CC(=O)NCOCCCC
Reply text: label 0

Inquiry: // param item: CC/C=C(\C(=O)N[C@@H]1C(=O)N2C(C(=O)OCOC(=O)C(C)(C)C)=C(COC(N)=O)CS[C@H]12)c1csc(N)n1 ; yields the recorded call
Reply text: label 0

Inquiry: Entry COc1ccccc1[N+](=O)[O-] : call = ?
Reply text: label 0

Inquiry: Status in this test for CC(COCC(C)OC(=O)c1ccccc1)OC(=O)c1ccccc1 (stereo not given) ?
Reply text: label 1

Inquiry: Please share the test call associated with CCCCCCC(=O)O .
Reply text: label 0

Inquiry: Would you mind telling me which call this test gave CCCCCCCCO ?
Reply text: label 0

Inquiry: Answer briefly: the call reported for N[C@@H](Cc1cc(I)c(Oc2ccc(O)c(I)c2)c(I)c1)C(=O)O in this assay.
Reply text: label 0

Inquiry: Any idea what this test logged for Clc1cccc(Cl)c1NC1=NCCN1 ?
Reply text: label 0

Inquiry: Any idea what this test logged for CCCCCCCCCCCCCC(=O)O ?
Reply text: label 0

Inquiry: Give the logged outcome of this assay for the following molecule: CC(C)c1ccc(C(C)C)cc1
Reply text: label 0

###

# TEST_SUMMARY: qHTS assay to identify small molecule agonists of the TGF-beta/Smad signaling pathway (AID 1346859); note: % is set by controls: 0 for no effect and ±100 for the full control effect
# TEST_CONTEXT: SBE-bla HEK293T, TGF-beta/Smad beta-lactamase reporter, 5 h; series mostly up to 76.8 µM
Records with an inconclusive call do not appear. Activity calls are given as the source filed them. Calls come from the whole dose curve; as a rule, active = well fitted activation curve with a large enough effect in the signal ratio in the repeat runs (not every such curve was filed as active); inconclusive = weak or mixed curves; inactive = flat fitted curve, though single readings scatter; the % refers to the signal ratio.
RESULT_TYPE: outcome

{"columns": ["MOLECULE", "outcome"],
 "data": [
  ["O=C1C(N(CO)C(=O)NCO)N(CO)C(=O)N1CO (stereo not drawn)", "inactive"],
  ["CC(=O)CC(=O)N(C)C", "inactive"],
  ["CCCCCC(C)=O", "inactive"],
  ["Cc1ncc(CO)c(CO)c1O", "inactive"],
  ["O=C1O[C@H]([C@H](O)CO)C(O)=C1O", "inactive"],
  ["Cc1ccccc1C=O", "inactive"]
]}

Inquiry: Look at this molecule and give its reported outcome. CC(=O)OC/C=C(\C)CCC=C(C)C
Reply text: inactive

Inquiry: Returns the measured outcome for the input molecule. Input: NC(N)=S
Reply text: inactive

Inquiry: Query: outcome; subject: COc1ccc2cc3[n+](cc2c1OC)CCc1cc2c(cc1-3)OCO2
Reply text: inactive

Inquiry: Given the molecule CC(=O)OCCC(C)C , what is its reported outcome?
Reply text: inactive

Inquiry: Which outcome is reported for this molecule? CC(=O)OCc1ccc2c(c1)OCO2
Reply text: inactive

Inquiry: Bench note: what outcome did Cc1ccc(Cl)cc1 show?
Reply text: inactive

Inquiry: Which outcome value is on record for CC(C)c1ccc(C(C)C)cc1 ?
Reply text: inactive

Inquiry: Dear colleague, I am looking for the recorded outcome of the following molecule: CCCCCCC(=O)O
Reply text: inactive

Inquiry: // query outcome value for entry CCc1cccc(CC)c1N
Reply text: inactive

Inquiry: Item O=C(NCC1CCCCN1)c1cc(OCC(F)(F)F)ccc1OCC(F)(F)F (stereo not drawn) has what recorded outcome?
Reply text: inactive

Inquiry: Recorded outcome of C=C1C[C@]23C[C@@]1(O)CC[C@H]2[C@@]12C=C[C@H](O)[C@@](C)(C(=O)O1)[C@H]2[C@@H]3C(=O)O , please.
Reply text: inactive

Inquiry: Entry CCCCCCCCCCCC(=O)N(C)CC(=O)O : reported outcome = ?
Reply text: inactive

From: PubChem BioAssay (Tox21)
